Provenance of the data: PubChem BioAssay

SYSTEM_NAME: Alpha-bungarotoxin (Bungarus multicinctus)
METHOD_SUMMARY: alpha-bungarotoxin binders on microarray, profiling panel, artefact control for SMM control protein annotation, biochemical, small-molecule microarray, Alexa647 label, 635/667 nm fluorescence (AID 1117)
TEST_CONTEXT: alpha-BTX-A647 binding fluorescence, higher = more signal
REPORTED_PROPERTY: composite z-score
Please reply with the number alone, leaving off any unit.

Would you mind telling me what composite z-score value was observed for CCCCCN1CC=CC23O[C@@H]4/C=C\CCC(C)OC(=O)C4[C@H]2C(=O)N(CCCCCCO)[C@@H]3C1=O (some centres undefined) ?
-0.267

Would you mind telling me what composite z-score value was observed for CCCNC(=O)[C@@]1(C)c2ccccc2C(=O)N(Cc2ccccc2)[C@H]1c1ccc(CO)cc1 ?
-0.612

Would you mind telling me what composite z-score value was observed for [N-]=[N+]=NCc1ccccc1[C@H]1OC(c2ccc(OCCCO)cc2)=N[C@@]1(Cc1ccccc1)C(=O)NCCN1CCOCC1 ?
1.78

Would you mind telling me what composite z-score value was observed for C[C@]1(C(=O)NCC(F)(F)F)c2ccccc2C(=O)N(Cc2ccccc2)[C@H]1c1ccc(CO)cc1 ?
-0.553
